# assay.notes: chemical genetic growth profiling, strain panel (AID 1159580);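 also: tested at 20 µM; growth read once vehicle control cultures reached saturation at 30 °C; 1 = growth at the plate median or of vehicle wells; lower values mean less growth of the strain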
# setup.conditions: S. cerevisiae deletion strains, growth OD, locus YOR184W, strain ser1, hits give low values
The whole screen tested about 5,500 compounds, of which about 2,000 (36%) were called active. Not shown: some 18% with an inconclusive outcome. The list shows a part of the results.
endpoint.name: normalized growth

Below: 2 compounds and their reported normalized growth.
COC1=CC23CCCN2CCc2cc4c(cc2C3C1O)OCO4 (stereo not drawn)
0.999 (inactive)
CNC(C)[C@@H]1CC[C@@H](N)[C@@H](OC2[C@@H](N)C[C@@H](N)[C@H](OC3OC[C@](C)(O)[C@H](NC)[C@H]3O)[C@H]2O)O1 (stereo partly drawn)
1.03 (inactive)

Now for a further compound.
Any idea what normalized growth was measured for `CC(=O)Nc1c(I)cc(I)c(C(=O)O)c1I` ?
0.969 (inactive)
